Please respond with reported solubility (g/100 g solution) for every item in the list.
Assay: xn = mol fraction of the nth substance listed, in the solute-free solvent
Conditions: 308.15 K; x2 = 0.5
One number for each entry.

The examples below pair each entry with its known result.
                                   compound          experimental_endpoint  quantitative_readout
0  CC(=O)OC(c1ccccc1)C(Cl)(Cl)Cl (stereo not drawn) + CCO + O  solubility (g/100 g solution)                  2.72
1  O=C1CCc2ccc(OCCCCN3CCN(c4cccc(Cl)c4Cl)CC3)cc2N1 + CCC(C)=O + CC(C)=O  solubility (g/100 g solution)                  3.34

Ask: What measured solubility (g/100 g solution) goes with CCCCOc1ccc(C(=O)CCN2CCCCC2)cc1.Cl + CCO + CCOC(C)=O ?
Reply: 27.9

====

Test: xn = mol fraction of the nth substance listed, in the solute-free solvent
Conditions: 283.15 K; x2 = 0.8
Please respond with reported solubility (g/100 g solution) for every item in the list.

The examples below pair each entry with its known result.
In [3]: df
Out[3]:
                                   compound  result
0  O=C1CCc2ccc(OCCCCN3CCN(c4cccc(Cl)c4Cl)CC3)cc2N1 + CCC(C)=O + CC(C)=O    1.43
1  CCCCOc1ccc(C(=O)CCN2CCCCC2)cc1.Cl + CCO + CCOC(C)=O    26.8

Attention now shifts to the item below.
Ask: What measured solubility (g/100 g solution) goes with O=C1CCc2ccc(OCCCCN3CCN(c4cccc(Cl)c4Cl)CC3)cc2N1 + CCC(C)=O + CCOC(C)=O ?
Reply: 1.22

====

Experiment: xn = mol fraction of the nth substance listed, in the solute-free solvent
Settings: 308.15 K; x2 = 0.4
experimental-endpoint: solubility (g/100 g solution)

The examples below pair each entry with its known result.
                                   compound  result
0  CC(=O)OC(c1ccccc1)C(Cl)(Cl)Cl (centres undefined) + CC(=O)O + O   0.966
1      O=C(O)c1ccc(C(=O)O)o1 + C1COCCO1 + O    5.23
2  CCCCOc1ccc(C(=O)CCN2CCCCC2)cc1.Cl + CO + C1CCOC1    29.6

Ask: What measured solubility (g/100 g solution) goes with O=C(O)c1ccc(C(=O)O)o1 + C1CCOC1 + O ?
Reply: 7.22

====

Experiment: xn = mol fraction of the nth substance listed, in the solute-free solvent
Conditions: 308.15 K; x2 = 0.9
experimental-endpoint: solubility (g/100 g solution)
Numbers only.

The examples below pair each entry with its known result.
>>> print(df.to_string())
                                   compound          experimental_endpoint  quantitative_readout
0       O=C(O)c1ccc(C(=O)O)o1 + C1CCOC1 + O  solubility (g/100 g solution)                  3.98
1  CCCCOc1ccc(C(=O)CCN2CCCCC2)cc1.Cl + CCO + O  solubility (g/100 g solution)                  50.3
2  CCCCOc1ccc(C(=O)CCN2CCCCC2)cc1.Cl + CCO + CCCCCC  solubility (g/100 g solution)                    45

Go through the list and state solubility (g/100 g solution) for each entry.
1. CC(=O)OC(c1ccccc1)C(Cl)(Cl)Cl (centres undefined) + CCO + O
2. O=C1CCc2ccc(OCCCCN3CCN(c4cccc(Cl)c4Cl)CC3)cc2N1 + CCC(C)=O + CCCO
3. CC(=O)OC(c1ccccc1)C(Cl)(Cl)Cl (centres undefined) + CC(=O)O + O
4. O=C1CCc2ccc(OCCCCN3CCN(c4cccc(Cl)c4Cl)CC3)cc2N1 + CCC(C)=O + CC(C)=O
5. O=C(O)c1ccc(C(=O)O)o1 + O + COCCOCCOC
6. O=C(O)c1ccc(C(=O)O)o1 + C1COCCO1 + O

Reply:
9.27
4.21
17
3.68
3.72
1.42
